Source listed as patent US8580965B2.

# TARGET_ENTITY: human B1R receptor (bradykinin 1 receptor) (Homo sapiens)
# Construct: host or cells: CHO K1 cells (hB1R cells)
# MEASUREMENT_PROTOCOL: FLIPR Ca2+ assay (Fluo-4) on CHO K1 cells stably transfected with the human B1R gene; % activation and % inhibition at 10 μM
# Type: cell-based
# CONDITION_SUMMARY: CHO-K1, test substance 10 μM; CHO K1 hB1R cells; Ca2+ inflow after 0.5 nM Lys-Des-Arg9-bradykinin; read-out: B1R antagonism, human [10 μM] % inhibition
MEASUREMENT_NAME: inhibition at 10 µM (%)
Answers are plain numbers, in %.

Give inhibition at 10 µM for each listed item.
1. COc1cc(C)c(S(=O)(=O)N2CCC(COCC(=O)N3CCC(O)(c4cccs4)CC3)C2)c(C)c1 (centres unmarked)
2. Cc1cc(C)c(S(=O)(=O)N2CCCCC2COCC(=O)N2CCC(O)(c3cccnc3)CC2)c(C)c1 (centres unmarked)
3. O=C(COC1CCCCC1N(Cc1ccccc1)S(=O)(=O)c1ccc(Cl)c(Cl)c1)N1CCC(O)(c2ccccn2)CC1 (centres unmarked)
4. O=C(COC1CCCCC1N(Cc1ccccc1)S(=O)(=O)c1ccc(Cl)c(Cl)c1)N1CCC(O)(Cc2ccccc2)CC1 (centres unmarked)
5. COc1cc(C)c(S(=O)(=O)N(CCOCC(=O)N2CCC(O)(c3ccc(Cl)c(C(F)(F)F)c3)CC2)CC(C)C)c(C)c1C
6. Cc1cc(Cl)cc(Cl)c1S(=O)(=O)N(C)CCOCC(=O)N1CCC(O)(c2ccccc2)CC1

### Response
1. 90.6
2. 74.9
3. 8.92
4. -0.61
5. 57.3
6. 98.6

---

# TARGET_ENTITY: human B1R receptor (bradykinin 1 receptor) (Homo sapiens, UniProt P46663)
# Construct: host or cells: CHO K1 cells (hB1R cells)
# Sequence (P46663 whole entry): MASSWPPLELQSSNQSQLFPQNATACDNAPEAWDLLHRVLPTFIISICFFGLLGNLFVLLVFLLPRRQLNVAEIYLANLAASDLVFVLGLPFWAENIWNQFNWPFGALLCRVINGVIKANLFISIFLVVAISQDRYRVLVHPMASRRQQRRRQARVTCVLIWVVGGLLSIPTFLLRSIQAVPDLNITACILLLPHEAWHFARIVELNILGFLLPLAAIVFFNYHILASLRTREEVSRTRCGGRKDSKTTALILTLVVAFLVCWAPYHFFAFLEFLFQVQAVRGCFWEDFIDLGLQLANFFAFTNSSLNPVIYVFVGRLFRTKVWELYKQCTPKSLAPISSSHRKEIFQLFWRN
# MEASUREMENT_PROTOCOL: FLIPR Ca2+ assay (Fluo-4) on CHO K1 cells stably transfected with the human B1R gene; % activation and % inhibition at 10 μM
# Type: cell-based
# CONDITION_SUMMARY: CHO-K1, test substance 10 μM; CHO K1 hB1R cells; Ca2+ inflow after 0.5 nM Lys-Des-Arg9-bradykinin; read-out: B1R antagonism, human [10 μM] % inhibition
Where a name gives a salt, the structure may show the parent alone.
I'd appreciate it if you could supply inhibition at 10 µM values for the items below.
Give bare numbers, in %.

Sample records with inhibition at 10 µM:
| COMPOUND | inhibition at 10 µM (%) |
| --- | --- |
| COc1cc(C)c(S(=O)(=O)N(C)CCOCCC(=O)N2CCC(O)(c3cccnc3)CC2)c(C)c1 | 84.1 |
| Cc1cc(C)c(S(=O)(=O)N2CCCCC2COCC(=O)N2CCC(O)(Cc3ccccc3)CC2)c(C)c1 (stereo not drawn) | 55.4 |
| CN(CCOCC(=O)N1CCC(O)(Cc2ccccc2)CC1)S(=O)(=O)c1c(Cl)cc(Cl)cc1Cl | 95.7 |
| Cc1cc(S(=O)(=O)N2CCCCC2COCC(=O)N2CCC(O)(Cc3ccccc3)CC2)c(C)cc1Cl (stereo not drawn) | 38.5 |
| O=C(COCC1CCCCN1S(=O)(=O)c1c(Cl)cccc1Cl)N1CCC(O)(c2cccs2)CC1 (stereo not drawn) | 93.9 |
| Cc1cc(S(=O)(=O)N(C)CCOCC(=O)N2CCC(O)(c3ccc(Cl)cc3)CC2)c(C)cc1Cl | 95.3 |
| O=C(COCC1CCCN1S(=O)(=O)c1c(Cl)cc(C(F)(F)F)cc1Cl)N1CCC(O)(c2ccc(Cl)cc2)CC1 (stereo not drawn) | 58.5 |
| CN(CCOCC(=O)N1CCC(O)(c2ccccn2)CC1)S(=O)(=O)c1ccc(Cl)s1 | -9.25 |

Give inhibition at 10 µM for each listed item.
1. Cc1cc(S(=O)(=O)N2CCCCC2CCC(=O)N2CCC(O)(c3cccnc3)CC2)c(C)cc1Cl (stereo not drawn) [Example 111, hydrochloride]
2. COc1cc(C)c(S(=O)(=O)N2CCC(COCC(=O)N3CCC(O)(c4ccc(Cl)c(C(F)(F)F)c4)CC3)C2)c(C)c1 (stereo not drawn)
3. O=C(COCC1Cc2ccccc2CN1S(=O)(=O)c1ccc(Cl)cc1Cl)N1CCC(O)(c2ccc(Cl)cc2)CC1 (stereo not drawn)

### Response
[97.8, 95, 47.3]

Give inhibition at 10 µM for each listed item.
1. O=C(COCCN1CCN(S(=O)(=O)c2ccccc2)CC1)N1CCC(O)(c2ccncc2)CC1
2. COc1cc(C)c(S(=O)(=O)N2CCC(COCC(=O)N3CCC(O)(c4ccc(Br)cc4)CC3)C2)c(C)c1 (stereo not drawn)
3. O=C(COC1CCN(S(=O)(=O)c2c(Cl)cc(Cl)cc2Cl)C1)N1CCC(O)(c2ccc(Cl)cc2)CC1 (stereo not drawn)
4. Cc1cc(S(=O)(=O)N2CCCCC2CCC(=O)N2CCC(O)(c3cccc(F)c3)CC2)c(C)cc1Cl (stereo not drawn)

### Response
-5.73
100
75.5
58.4

---

# TARGET_ENTITY: B1R receptor of the rat (bradykinin 1 receptor) (Rattus norvegicus, UniProt P97583)
# Construct: host or cells: CHO K1 cells (rB1R cells)
# Sequence (P97583 1-337): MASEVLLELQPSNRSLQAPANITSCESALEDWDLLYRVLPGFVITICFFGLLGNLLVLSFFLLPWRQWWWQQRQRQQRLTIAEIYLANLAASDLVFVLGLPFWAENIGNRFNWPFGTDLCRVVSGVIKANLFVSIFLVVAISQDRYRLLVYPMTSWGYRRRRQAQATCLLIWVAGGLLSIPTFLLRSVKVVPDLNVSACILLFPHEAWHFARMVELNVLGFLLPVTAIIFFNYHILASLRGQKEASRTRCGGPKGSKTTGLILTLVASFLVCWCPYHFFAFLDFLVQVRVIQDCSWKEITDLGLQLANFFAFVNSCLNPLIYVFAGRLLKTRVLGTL
# MEASUREMENT_PROTOCOL: FLIPR Ca2+ assay (Fluo-4) on CHO K1 cells stably transfected with the B1R gene of the rat; % activation and % inhibition at 10 μM
# Type: cell-based
# CONDITION_SUMMARY: CHO-K1, test substance 10 μM; CHO K1 rB1R cells; Ca2+ inflow after 100 nM Des-Arg9-bradykinin; read-out: B1R antagonism, rat [10 μM] % inhibition
MEASUREMENT_NAME: inhibition at 10 µM
A complete answer gives the number followed by the unit.

Sample records with inhibition at 10 µM:
| MOLECULE | REPORTED |
| --- | --- |
| COc1cc(C)c(S(=O)(=O)N(CCOCC(=O)N2CCC(O)(c3ccc(Cl)c(C(F)(F)F)c3)CC2)CC(C)C)c(C)c1C [Example 238] | 97.4% |
| O=C(COC1CCN(S(=O)(=O)c2ccccc2)C1)N1CCC(O)(c2ccccn2)CC1 (stereo not shown) [Example 34] | 40.3% |
| CN(CCOCC(=O)N1CCC(O)(c2cccc(C(F)(F)F)c2)CC1)S(=O)(=O)c1cc(Cl)sc1Cl [Example 262] | 94.2% |

// inhibition at 10 µM value for O=C(CCC1CCCCN1S(=O)(=O)c1cccc(C(F)(F)F)c1)N1CCC(O)(c2ccc(Br)cc2)CC1 (stereo not shown) [Example 123] : 54.7%

---

# TARGET_ENTITY: human B1R receptor (bradykinin 1 receptor) (Homo sapiens)
# Construct: host or cells: CHO K1 cells (hB1R cells)
# MEASUREMENT_PROTOCOL: FLIPR Ca2+ assay (Fluo-4) on CHO K1 cells stably transfected with the human B1R gene; % activation and % inhibition at 10 μM
# Type: cell-based
# CONDITION_SUMMARY: CHO-K1, test substance 10 μM; CHO K1 hB1R cells; Ca2+ inflow after 0.5 nM Lys-Des-Arg9-bradykinin; read-out: B1R antagonism, human [10 μM] % inhibition
MEASUREMENT_NAME: inhibition at 10 µM (%)
Numbers only, in %.

Sample records with inhibition at 10 µM:
| COMPOUND | REPORTED |
| --- | --- |
| O=C(COCC1Cc2ccccc2CN1S(=O)(=O)c1ccccc1)N1CCC(O)(c2cccnc2)CC1 (stereo not drawn) | 13.8 |
| O=C(COCc1sccc1N(Cc1ccccc1)S(=O)(=O)c1ccc(Cl)c(Cl)c1)N1CCC(O)(Cc2ccccc2)CC1 | 9.45 |
| COc1ccc(S(=O)(=O)N(C)CCOCC(=O)N2CCC(O)(c3ccccn3)CC2)cc1OC | 1.29 |
| O=C(COCC1CCCCN1S(=O)(=O)c1ccc(C(F)(F)F)cc1)N1CCC(O)(c2ccc(Cl)cc2)CC1 (stereo not drawn) | 20.9 |
| Cc1cc(S(=O)(=O)N2CCCCC2COCC(=O)N2CCC(O)(c3cccnc3)CC2)c(C)cc1Cl (stereo not drawn) | 77.1 |
| O=C(COC1CCN(S(=O)(=O)c2ccccc2)CC1)N1CCC(O)(c2ccccn2)CC1 | -13.1 |
| O=C(COCC1CCCCN1S(=O)(=O)c1c(Cl)cccc1Cl)N1CCC(O)(c2ccc(Cl)c(C(F)(F)F)c2)CC1 (stereo not drawn) | 102 |
| O=C(COC[C@@H]1Cc2ccccc2CN1S(=O)(=O)c1ccc(Cl)cc1Cl)N1CCC(O)(c2cccnc2)CC1 | 103 |
| COc1cc(C)c(S(=O)(=O)N2CCCC2COCC(=O)N2CCC(O)(c3ccccc3)CC2)c(C)c1 (stereo not drawn) | 104 |
| CN(C1CCCCC1OCC(=O)N1CCC(O)(Cc2ccccc2)CC1)S(=O)(=O)c1ccc(Cl)c(Cl)c1 (stereo not drawn) | -1.29 |

Give inhibition at 10 µM for each listed item.
1. O=C(COCC1CCCCN1S(=O)(=O)c1ccccc1C(F)(F)F)N1CCC(O)(c2cccnc2)CC1 (stereo not drawn)
2. COc1cc(C)c(S(=O)(=O)N(CCOCC(=O)N2CCC(O)(c3ccccc3)CC2)CC2CC2)c(C)c1C
3. O=C(COCC1CCCCN1S(=O)(=O)c1ccccc1C(F)(F)F)N1CCC(O)(c2ccc(Br)cc2)CC1 (stereo not drawn)

### Response
103
105
102

Give inhibition at 10 µM for each listed item.
1. CCN(CCOCC(=O)N1CCC(O)(Cc2ccccc2)CC1)S(=O)(=O)c1c(C)cc(OC)c(C)c1C
2. O=C(COCC1CCCN1S(=O)(=O)c1c(Cl)cc(C(F)(F)F)cc1Cl)N1CCC(O)(c2cccc(C(F)(F)F)c2)CC1 (stereo not drawn)
3. Cc1cc(S(=O)(=O)N(C)CCOCC(=O)N2CCC(O)(c3cccc(C(F)(F)F)c3)CC2)c(C)s1
4. COc1ccc(S(=O)(=O)N2Cc3ccccc3CC2COCC(=O)N2CCC(O)(c3ccccn3)CC2)cc1 (stereo not drawn)
5. COc1cc(C)c(S(=O)(=O)N2CCC(OCC(=O)N3CCC(O)(c4ccccn4)CC3)C2)c(C)c1 (stereo not drawn)

### Response
[104, 25.7, 71.5, -9.09, 20.5]

Give inhibition at 10 µM for each listed item.
1. O=C(COC1CCN(S(=O)(=O)c2ccc(F)cc2)C1)N1CCC(O)(c2ccccn2)CC1 (stereo not drawn)
2. COc1cc(C)c(S(=O)(=O)N(C)CCOCC(=O)N2CCC(O)(c3cccnc3)CC2)c(C)c1
3. O=C(COC1CCN(S(=O)(=O)c2c(Cl)cc(Cl)cc2Cl)C1)N1CCC(O)(Cc2ccccc2)CC1 (stereo not drawn)
4. O=C(COCC1CCCCN1S(=O)(=O)c1ccc(Cl)cc1)N1CCC(O)(Cc2ccccc2)CC1 (stereo not drawn)

### Response
-23.8
105
103
-11.4

Give inhibition at 10 µM for each listed item.
1. O=C(COCC1CCCCN1S(=O)(=O)c1ccc(Cl)c(Cl)c1)N1CCC(O)(c2ccccn2)CC1 (stereo not drawn)
2. O=C(CCC1CCCCN1S(=O)(=O)c1ccc2ccccc2c1)N1CCC(O)(c2cccnc2)CC1 (stereo not drawn)
3. COc1cc(C)c(S(=O)(=O)N2CCCC(OCCC(=O)N3CCC(O)(c4ccc(Br)cc4)CC3)C2)c(C)c1 (stereo not drawn)
4. O=C(COC1CCN(S(=O)(=O)c2ccccc2)C1)N1CCC(O)(c2ccccn2)CC1 (stereo not drawn)
5. O=C(COCC1CCCCN1S(=O)(=O)c1cc(Cl)sc1Cl)N1CCC(O)(c2ccccc2)CC1 (stereo not drawn)
6. Cc1cc(S(=O)(=O)N(C)CCOCC(=O)N2CCC(O)(c3cccnc3)CC2)c(C)cc1Cl
7. O=C(COC1CCN(S(=O)(=O)c2ccccc2)CC1)N1CCC(O)(Cc2ccccc2)CC1

### Response
10
84.8
54.6
5.93
41.9
99.1
3.4

// inhibition at 10 µM value for COc1ccc(S(=O)(=O)N2CCC(OCC(=O)N3CCC(O)(c4ccccn4)CC3)C2)cc1OC (stereo not drawn) : -10
